FYI, the data here is from ChEMBL document CHEMBL5241107.

target: Eukaryotic initiation factor 4A-I (Homo sapiens, UniProt P60842); assay: Inhibition of human recombinant N-terminal His6-tagged eIF4A expressed in Escherichia coli BL21 CodonPlus cells using ATP and yeast RNA as substrate preincubated with enzyme for 20 mins followed by susbtrate addition and measured after 4 hrs by Malachite green ATPase assay
Sequence (P60842 whole entry): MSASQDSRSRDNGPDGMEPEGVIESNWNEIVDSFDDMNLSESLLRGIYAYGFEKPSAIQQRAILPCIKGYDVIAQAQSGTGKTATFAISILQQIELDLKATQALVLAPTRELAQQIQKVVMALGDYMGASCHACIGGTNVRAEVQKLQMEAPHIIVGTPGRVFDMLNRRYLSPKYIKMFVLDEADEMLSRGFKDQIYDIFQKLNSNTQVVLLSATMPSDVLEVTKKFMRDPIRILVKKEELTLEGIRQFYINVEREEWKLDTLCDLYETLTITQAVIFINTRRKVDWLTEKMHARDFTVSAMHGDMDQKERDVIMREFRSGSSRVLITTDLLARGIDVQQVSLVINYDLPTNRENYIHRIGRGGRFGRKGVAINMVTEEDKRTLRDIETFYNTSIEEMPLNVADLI
pIC50: −log10 of the molar value.
# if value of pIC50 reaches 4, tag true (1); if it stays below, tag false (0)

Known results for molecules:
{"columns": ["COMPOUND_SMILES", "LABEL_VALUE"],
 "data": [
  ["O=C(O)c1cc(-c2ccc(-c3ccc(-c4ccccc4)cc3)o2)nc2ccc([N+](=O)[O-])cc12", "true (1)"],
  ["CC(C)(C)OC(=O)Nc1ccc(-c2ccc(-c3cc(C(=O)O)c4cc([N+](=O)[O-])ccc4n3)o2)cc1", "false (0)"],
  ["O=C(O)c1cc(-c2ccc(-c3cccc(-c4ccccc4)c3)o2)nc2ccc([N+](=O)[O-])cc12", "true (1)"],
  ["CCCCc1ccc(-c2cccc(-c3cc(C(=O)O)c4cc([N+](=O)[O-])ccc4n3)c2)cc1", "true (1)"],
  ["CCCOc1cccc(-c2ccc(-c3cc(C(=O)O)c4cc([N+](=O)[O-])ccc4n3)o2)c1", "true (1)"],
  ["CCCCc1ccc(-c2ccc(-c3cc(C(=O)O)c4ccc(C(F)(F)F)cc4n3)o2)cc1", "true (1)"],
  ["Nc1cccc(-c2ccc(-c3cc(C(=O)O)c4cc([N+](=O)[O-])ccc4n3)o2)c1", "false (0)"]
]}

Alright, here's another molecule for you.
### Prompt Is pIC50 for "CCCCc1ccc(-c2ccc(-c3cc(C(=O)O)c4cc([N+](=O)[O-])ccc4n3)cc2)cc1" at or above 4?
### Response true (1)

###

target: Eukaryotic initiation factor 4A-I (Homo sapiens, UniProt P60842, R110E); test: Inhibition of human recombinant N-terminal His6-tagged eIF4A R110E mutant expressed in Escherichia coli BL21 CodonPlus cells using ATP and yeast RNA as substrate preincubated with enzyme for 20 mins followed by susbtrate addition and measured after 4 hrs by Malachite green ATPase assay
Sequence (P60842 2-406 R110E limits assumed): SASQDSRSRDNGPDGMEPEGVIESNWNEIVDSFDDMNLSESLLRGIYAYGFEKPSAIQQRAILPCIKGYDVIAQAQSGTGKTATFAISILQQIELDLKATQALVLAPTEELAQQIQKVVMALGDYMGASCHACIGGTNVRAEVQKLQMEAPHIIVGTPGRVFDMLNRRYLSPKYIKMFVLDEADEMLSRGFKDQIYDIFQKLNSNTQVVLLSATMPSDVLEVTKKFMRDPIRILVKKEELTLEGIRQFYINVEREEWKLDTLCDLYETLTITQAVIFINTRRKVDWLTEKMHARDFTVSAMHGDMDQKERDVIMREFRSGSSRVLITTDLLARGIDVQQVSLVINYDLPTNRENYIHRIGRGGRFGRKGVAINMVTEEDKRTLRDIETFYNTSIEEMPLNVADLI
MEASUREMENT_NAME: IC50

### Prompt Field request: IC50 | item: "CCCCc1ccc(-c2ccc(-c3cc(C(=O)O)c4cc([N+](=O)[O-])ccc4n3)o2)cc1"
### Response > 50 µM

###

target: Eukaryotic initiation factor 4A-I (Homo sapiens, UniProt P60842, R311E); assay: Inhibition of human recombinant N-terminal His6-tagged eIF4A R311E mutant expressed in Escherichia coli BL21 CodonPlus cells using ATP and yeast RNA as substrate preincubated with enzyme for 20 mins followed by susbtrate addition and measured after 4 hrs by Malachite green ATPase assay
Sequence (P60842 2-406 R311E limits assumed): as the sequence (P60842 2-406 R110E limits assumed) above, with E109R, R310E counted along it
MEASUREMENT_NAME: IC50

### Prompt Hi! What's the reported IC50 for "CCCCc1ccc(-c2ccc(-c3cc(C(=O)O)c4cc([N+](=O)[O-])ccc4n3)o2)cc1" on Eukaryotic initiation factor 4A-I (Homo sapiens, UniProt P60842, R311E)?
### Response > 50 µM

###

pIC50 for assorted molecules
target: UniProt:P60842; experiment: Inhibition of human recombinant N-terminal His6-tagged eIF4A expressed in Escherichia coli BL21 CodonPlus cells using ATP and yeast RNA as substrate preincubated with enzyme for 20 mins followed by susbtrate addition and measured after 4 hrs by Malachite green ATPase assay
# log scale: pIC50 equals minus log10 of the concentration in mol/L

Look over these answered cases.
{"columns": ["COMPOUND_SMILES", "STUDY_TARGET", "pIC50"],
 "data": [
  ["O=C(O)c1cc(-c2ccc(-c3ccc(Oc4ccccc4)cc3)o2)nc2ccc([N+](=O)[O-])cc12", "UniProt:P60842", 4.90],
  ["CCCCc1ccc(-c2ccc(-c3cc(C(=O)O)c4c(Cl)cccc4n3)o2)cc1", "UniProt:P60842", 3.87],
  ["CCCCc1ccc(-c2ccc(-c3cc(C(=O)O)c4cc(Cl)ccc4n3)o2)cc1", "UniProt:P60842", 4.36]
]}

### Prompt Field request: pIC50 | item: "CCCCc1ccc(-c2ccc(-c3cc(C(=O)O)c4cc(C(C)C)ccc4n3)o2)cc1"
### Response 3.97
